ΔTm values by entry
Test system: Pseudomonas aeruginosa
Experiment: Binding affinity to Pseudomonas aeruginosa MurB assessed as change in melting temperature at 1 mM by differential scanning fluorimetry
Provide only the numeric value, understood in °C.

Check out these entries, answers already filled in.
Structure As Smiles: Cc1cccc(-n2ncc(C(=O)O)c2C(F)(F)F)c1C
Observed Result: 2
--
Structure As Smiles: Cc1cc(Cl)c(Cl)cc1-n1c(C)cc(C(=O)O)c1C
Observed Result: 3.5
--
Structure As Smiles: Cc1c(-n2c(C)cc(C(=O)O)c2C(F)(F)F)ccc(Cl)c1Cl
Observed Result: 2.7
--
Structure As Smiles: NCc1ccc2sccc2c1
Observed Result: 0
--
Structure As Smiles: O=C(O)c1cnn(-c2ccccc2C(F)(F)F)c1C(F)(F)F
Observed Result: 1
--
Structure As Smiles: Cc1cc(C(=O)O)n[nH]1
Observed Result: 0

Prompt: I have this compound here, Cc1cc([N+](=O)[O-])ccc1-n1ncc(C(=O)O)c1C(F)(F)F , and I need its recorded ΔTm.
Completion: 1.7

Prompt: I have this compound here, NCc1ccc2[nH]ccc2c1 , and I need its recorded ΔTm.
Completion: 0.2

Prompt: I have this compound here, O=C(O)c1cnn(-c2cccnc2)c1C(F)(F)F , and I need its recorded ΔTm.
Completion: 0.3

Prompt: I have this compound here, Cc1cc(CC(=O)O)on1 , and I need its recorded ΔTm.
Completion: 0

Prompt: I have this compound here, O=C(O)Cc1ccccc1 , and I need its recorded ΔTm.
Completion: 0
